# Test system: Yap1 mRNA
# Assay Text: Antisense inhibition of human Yap1 in SNU-449 cells by modified oligonucleotides, single dose (Example 5, RTS36584)
# Type: cell-based
# Measurement Conditions: Table 42 (separate experiment); SNU-449 cells, 10,000 cells per well, free uptake, 2,000 nM modified oligonucleotide, approximately 48 hours; RTS36584; normalized to RIBOGREEN; Yap1 mRNA relative to untreated control cells
Strand notation (5' to 3'): a small letter for the sugar, then the base; units joined by * are phosphorothioate-linked, units joined directly phosphodiester-linked; [ ] holds rarer units or linkages, { } end groups; capitals alone tell only the bases. e = 2'-O-(2-methoxyethyl) (MOE); k = constrained ethyl (cEt); [5mC] = 5-methylcytosine; d = 2'-deoxy (DNA)
Response key: Criterion met means YAP1 (% UTC) >= 40 % UTC; Criterion not met means YAP1 (% UTC) < 40 % UTC.

[[record]]
substance = "1198678 (antisense kA*kT*dA*dT*dG*dG*dT*dT*dT*dT*dG*dT*kG*eT*kG*eT) [Compound 1198678]"
measured_target = "Yap1 mRNA"
class_assignment = "Criterion met"

[[record]]
substance = "1198221 (kT*kT*dA*d[5mC]*dA*dT*dT*dA*dG*dG*dA*eA*e[5mC]*eA*kA*kG) [Compound 1198221]"
measured_target = "Yap1 mRNA"
class_assignment = "Criterion met"

[[record]]
substance = "1198712 (kA*kG*dA*d[5mC]*dT*dA*dA*dG*dT*dA*dA*dG*kG*eT*kT*eT; antisense) [Compound 1198712]"
measured_target = "Yap1 mRNA"
class_assignment = "Criterion met"

[[record]]
substance = "1198227 (kA*kG*d[5mC]*dA*d[5mC]*dT*dT*dT*dT*dA*d[5mC]*eA*eT*eT*kA*kG; antisense) [Compound 1198227]"
measured_target = "Yap1 mRNA"
class_assignment = "Criterion met"

[[record]]
substance = "1198697 (antisense kA*kG*dT*dG*dT*dA*dT*dG*dT*d[5mC]*dA*dG*kA*eA*kG*eA) [Compound 1198697]"
measured_target = "Yap1 mRNA"
class_assignment = "Criterion not met"

[[record]]
substance = "1198236 (kG*kT*dG*d[5mC]*dT*dT*dT*dG*dG*dA*dA*eG*eA*eT*k[5mC]*kT) [Compound 1198236]"
measured_target = "Yap1 mRNA"
class_assignment = "Criterion not met"

[[record]]
substance = "1198693 (antisense kA*kT*dG*dT*dA*dA*dT*dA*dT*dT*dG*d[5mC]*kA*eA*kT*e[5mC]) [Compound 1198693]"
measured_target = "Yap1 mRNA"
class_assignment = "Criterion met"

[[record]]
substance = "1198240 (kT*kT*dA*dG*dG*dA*dT*dG*d[5mC]*dA*dT*eG*eG*eT*kT*kT) [Compound 1198240]"
measured_target = "Yap1 mRNA"
class_assignment = "Criterion met"

[[record]]
substance = "1198694 (antisense kT*kA*dT*dG*dT*dA*dA*dT*dA*dT*dT*dG*k[5mC]*eA*kA*eT) [Compound 1198694]"
measured_target = "Yap1 mRNA"
class_assignment = "Criterion met"

[[record]]
substance = "1198225 (k[5mC]*kA*d[5mC]*dT*dT*dT*dT*dA*d[5mC]*dA*dT*eT*eA*eG*kG*kA) [Compound 1198225]"
measured_target = "Yap1 mRNA"
class_assignment = "Criterion met"

[[record]]
substance = "1198235 (kT*kG*d[5mC]*dT*dT*dT*dG*dG*dA*dA*dG*eA*eT*e[5mC]*kT*kG) [Compound 1198235]"
measured_target = "Yap1 mRNA"
class_assignment = "Criterion met"

[[record]]
substance = "1198709 (k[5mC]*kT*dA*dA*dG*dT*dA*dA*dG*dG*dT*dT*kT*e[5mC]*k[5mC]*e[5mC]; antisense) [Compound 1198709]"
measured_target = "Yap1 mRNA"
class_assignment = "Criterion not met"

[[record]]
substance = "1198234 (kG*k[5mC]*dT*dT*dT*dG*dG*dA*dA*dG*dA*eT*e[5mC]*eT*kG*kA) [Compound 1198234]"
measured_target = "Yap1 mRNA"
class_assignment = "Criterion met"

[[record]]
substance = "1198201 (kA*kA*dA*dT*dT*dG*dT*d[5mC]*dT*d[5mC]*dA*eT*eG*e[5mC]*k[5mC]*kT; antisense) [Compound 1198201]"
measured_target = "Yap1 mRNA"
class_assignment = "Criterion not met"

